Assay: In vitro pharmacokinetics: metabolic stability in liver microsome
Format: in vitro ADME
Details: human liver microsome 1 mg/ml, 20 μM compound
Listed here: items and their measured One-hour stability.
Enter your answer as a number in %; do not include the unit.

Some solved entries appear below for comparison.
# smi, One-hour stability / %
records = [
    ("C=CCOc1ccc(OCc2cc(Cl)ccc2/C(=C\\OC)C(=O)OC)cc1", 80),
    ("CCCCCCOc1cccc(/C(C)=N/OCc2ccccc2/C(=C\\OC)C(=O)OC)c1", 33),
    ("CO/C=C(/C(=O)OC)c1ccccc1COc1cccc(OCCN2CCOCC2)c1", 83),
]

Read the next record carefully.
Q. Quick one: One-hour stability for "C=CCOc1cccc(OCc2ccccc2/C(=C\OC)C(=O)OC)c1" ?
A. 60

---

Test system: rats
Experiment: In vivo acute toxicity test (LD50)
Conditions: PO, single dose, 2 weeks observation
Listed here: items and their measured LD50.

Q. Quick one: LD50 for "CO/C=C(/C(=O)OC)c1ccc(Cl)cc1COc1ccc(OCC2CC2)cc1" ?
A. 100-300 mg/kg body weight

Q. Now the molecule "CO/C=C(/C(=O)OC)c1ccccc1COc1cccc(OCCN2CCOCC2)c1"
A. 100-300 mg/kg body weight

---

System: rats
Test: In vivo acute toxicity test (LD50)
Details: PO, single dose, 2 weeks observation
Excerpt: In order to determine the acute toxicities of the compounds prepared in Examples, 6-week old specific pathogen-free (SPF) rats each weighing […] were divided into groups of 10 rat each. […]
property label: LD50

Some solved entries appear below for comparison.
# molecule, LD50
records = [
    ("CO/C=C(/C(=O)OC)c1ccccc1COc1cccc(C(C)F)c1 (stereo not drawn)", ">1000 mg/kg body weight"),
    ("CO/C=C(/C(=O)OC)c1ccccc1COc1cccc(N2CCCCC2)c1", "110-130 mg/kg body weight"),
]

Read the next record carefully.
Q. Quick one: LD50 for "CCCCCCOc1cccc(/C(C)=N/OCc2ccccc2/C(=C\OC)C(=O)OC)c1" ?
A. >2000 mg/kg body weight
